Test system: HeLa cell line
experiment description: Proliferation assay (HeLa cell line)
Assay type: cell-based
condition summary: Homo sapiens, 96 h, read-out: Biological Assay 2: Proliferation assay (HeLa cell line) median IC50
endpoint name: IC50 (µM)
Could you give me the number in µM? Just the number is fine.

Sample records with IC50:
> print(dat)
                                   molecule  endpoint.name  observed.measurement
1  CCOc1cc(F)c(Cn2nc(-c3nc(N)cc(Nc4ccncn4)n3)c3ccccc32)c(F)c1 [Example 2-3-5]           IC50                   7.8
2  CCOc1cc(F)c(Cn2nc(-c3nc(N)cc(Nc4ccncc4)n3)c3ccccc32)c(F)c1 [Example 2-3-1]           IC50                   1.3

Request: Would you kindly share the measured IC50 for CCOc1cc(F)c(Cn2nc(-c3nc(N)c(NC(=O)COC)c(Nc4ccncc4)n3)c3ccccc32)c(F)c1 [Example 2-3-13] ?
Response: 7.8

###

target: catalytic domain of human Bub1 (amino acids 704-1085) (Homo sapiens)
Construct: catalytic domain of human Bub1 (amino acids 704-1085); His6 (N); made in house; host or cells: Hi5 insect cells
Sequence (O43683 704-1085): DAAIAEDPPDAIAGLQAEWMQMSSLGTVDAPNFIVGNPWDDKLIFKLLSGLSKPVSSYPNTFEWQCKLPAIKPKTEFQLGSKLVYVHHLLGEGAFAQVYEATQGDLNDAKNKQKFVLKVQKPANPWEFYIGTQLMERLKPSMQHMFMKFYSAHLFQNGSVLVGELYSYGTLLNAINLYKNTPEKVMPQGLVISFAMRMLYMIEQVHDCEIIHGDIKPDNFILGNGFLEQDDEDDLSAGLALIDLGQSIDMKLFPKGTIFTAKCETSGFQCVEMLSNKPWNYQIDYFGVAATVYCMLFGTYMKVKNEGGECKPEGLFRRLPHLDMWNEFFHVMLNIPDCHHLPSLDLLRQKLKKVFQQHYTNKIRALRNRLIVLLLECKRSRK
experiment description: Bub1 kinase assay (TR-FRET)
Format: biochemical
pIC50: −log10 of the molar value.
endpoint name: pIC50

Sample records with pIC50:
> print(dat)
                         structure.notation  endpoint.name  observed.measurement
1  CC(=O)Nc1cc(Nc2ccncc2)nc(-c2nn(Cc3ccccc3F)c3ccccc23)n1          pIC50                < 4.70
2  Fc1ccccc1Cn1nc(-c2nc(Nc3ccncc3)cc(Nc3ccncc3)n2)c2ccccc21          pIC50                < 4.70
3  COCC(=O)Nc1cc(N(c2ccncc2)c2ccncc2)nc(-c2nn(Cc3ccccc3F)c3ccccc23)n1          pIC50                < 4.70

Request: // pIC50 lookup, key: `CCNC(=O)Nc1nc(-c2nn(Cc3c(F)cc(OCC)cc3F)c3ccccc23)nc(Nc2ccncc2)c1N1CCOCC1`
Response: 6.89
